All values here come from the RNAGym collection of RNA variant scans (doi:10.7554/elife.90254).

B1: OR4K15 (parent)
chain: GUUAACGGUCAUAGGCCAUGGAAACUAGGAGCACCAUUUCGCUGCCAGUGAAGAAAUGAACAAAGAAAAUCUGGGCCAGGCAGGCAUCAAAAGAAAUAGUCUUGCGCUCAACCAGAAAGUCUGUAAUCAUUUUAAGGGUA

- Variants of: B1
- Test: self-cleavage, relative activity (ratio to wild type); higher = more cleavage; in vitro, sequencing; the parent is a self-cleaving ribozyme
Entries get a class label from measured self-cleavage. See ranges: bucket 1: < 0.6; bucket 2: ≥ 0.6 and < 1; bucket 3: ≥ 1

Previously resolved entries follow.
Returns: class label. Input: G58A A67G
bucket 1

Returns: class label. Input: A66U U108C
bucket 1

Returns: class label. Input: A63U U108C
bucket 1

Returns: class label. Input: U72A A94U
bucket 1

Returns: class label. Input: A98U U131A
bucket 1

Okay, now this variant:
Returns: class label. Input: A55U U102C
bucket 3
